Reported %Inh values follow for various molecules
Test system: ERK2;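 note: KINOMEscan kinase panel screen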
Construct: gene MAPK1
Conditions: concentration: 1 μM, replicates: in singlicate; n = 1
Recorded endpoint: %Inh (%)

>>> print(df.to_string())
                                    molecule  recorded_endpoint  experimental_result
 0  Cc1cc(Nc2nc(-c3cccc(C)n3)nc3ccccc23)ccn1 [GW872411]               %Inh                    0
 1  CCC(=O)c1c(-c2ccccc2)c2cc(Cl)ccc2c(=O)n1Cc1cc(S(C)(=O)=O)n(CCC(C)(C)O)n1               %Inh                   32
 2  COc1cccc(C2=C(N(C)c3ccccc3)C(=O)NC2=O)c1 [SB-334865]               %Inh                    0
 3  O=C(NCCNc1ccnc(Nc2ccc(F)cc2)n1)Nc1ccc2c(c1)OCO2 [GSK1379882]               %Inh                    0
 4  COc1cccc(-n2cnc3c(N)ncnc32)c1 [SKF-97416]               %Inh                    0
 5  CCn1c(-c2nonc2N)nc2ccccc21 [SB-693162/GW549034]               %Inh                   10
 6  CCC(=O)c1c(-c2ccccc2)c2cc(Cl)ccc2c(=O)n1Cc1cc(S(C)(=O)=O)n(CC(F)F)n1               %Inh                   11
 7  COc1ccc(-c2coc3ccc(-c4nnc(SCc5cccc(C#N)c5)o4)cc23)cc1               %Inh                   26
 8  O=C1NC(=O)C(c2ccccc2)=C1Nc1cccc(O)c1 [SB-390534]               %Inh                    0
 9  Cl.c1ccc(Cn2cnc3cc(Nc4ncnc5ccccc45)ccc32)cc1 [GW272142]               %Inh                    0
10  O=c1cc(N2CCOCC2)nc2n(Cc3ccc(F)c(Cl)c3)ccn12 [GSK2297099]               %Inh                    0
11  CCS(=O)(=O)c1ccc(OC)c(Nc2ncc(-c3ccc(F)cc3)o2)c1.Cl [GW591947]               %Inh                    7
12     CCn1c(-c2ccoc2)nc2cnccc21 [SB-733887]               %Inh                    0
13  COc1ccc(-n2cnc3c(N)ncnc32)cc1 [SKF-97236]               %Inh                    9
14  CC(C)(C)c1ccc(C(=O)Nc2cn3cc(-c4ccccc4)ccc3n2)cc1               %Inh                    0
15  Nc1nccc2scc(-c3ccc4c(c3)CCN4C(=O)Cc3ccccc3)c12 [GSK2576924]               %Inh                    0
16  CCC(=O)c1c(-c2ccccc2)c2cc(Cl)ccc2c(=O)n1Cc1cc(S(C)(=O)=O)n(CC(N)=O)n1               %Inh                    0
